pIC50 reference
TESTED_SYSTEM: Glucocorticoid receptor (Homo sapiens)
Sequence (P04150 whole entry): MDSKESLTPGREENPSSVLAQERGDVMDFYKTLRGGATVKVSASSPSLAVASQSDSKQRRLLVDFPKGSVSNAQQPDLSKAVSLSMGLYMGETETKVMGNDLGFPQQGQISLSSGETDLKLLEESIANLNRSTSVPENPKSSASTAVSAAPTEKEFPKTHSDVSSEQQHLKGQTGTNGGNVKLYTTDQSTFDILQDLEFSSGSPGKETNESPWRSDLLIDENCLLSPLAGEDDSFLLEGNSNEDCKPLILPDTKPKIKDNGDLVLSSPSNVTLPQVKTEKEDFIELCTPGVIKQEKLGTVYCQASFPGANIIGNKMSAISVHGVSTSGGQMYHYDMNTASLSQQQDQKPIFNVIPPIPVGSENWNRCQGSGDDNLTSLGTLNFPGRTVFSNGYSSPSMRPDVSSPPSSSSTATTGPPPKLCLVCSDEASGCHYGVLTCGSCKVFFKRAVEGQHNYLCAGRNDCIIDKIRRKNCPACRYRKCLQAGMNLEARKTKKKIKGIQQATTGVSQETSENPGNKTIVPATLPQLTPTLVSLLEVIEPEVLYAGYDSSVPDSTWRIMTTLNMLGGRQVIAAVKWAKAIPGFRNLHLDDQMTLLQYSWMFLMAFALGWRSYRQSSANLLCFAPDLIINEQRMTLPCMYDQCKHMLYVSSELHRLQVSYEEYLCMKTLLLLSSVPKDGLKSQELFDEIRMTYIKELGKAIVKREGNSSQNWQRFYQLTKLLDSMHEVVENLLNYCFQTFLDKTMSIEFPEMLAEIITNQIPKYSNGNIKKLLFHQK
METHOD_DESCRIPTION: Displacement of tetramethylrhodamine-labeled Dexamethasone from human recombinant glucocorticoid receptor expressed in baculovirus infected insect cells by fluorescence polarization assay
pIC50: −log10 of the molar value.

{"MOLECULE": "COc1ccc(F)cc1C(C)(C)CC(O)(Cc1cc2ccc(C#N)cc2[nH]1)C(F)(F)F (racemic)", "TESTED_SYSTEM": "Glucocorticoid receptor (Homo sapiens)", "pIC50": 7.85}
{"MOLECULE": "COc1ccc(F)cc1C(C)(C)CC(O)(Cc1cc2cc(C#N)ccc2[nH]1)C(F)(F)F (racemic)", "TESTED_SYSTEM": "Glucocorticoid receptor (Homo sapiens)", "pIC50": 8.10}
{"MOLECULE": "COc1ccc(F)cc1C(C)(C)CC(O)(Cc1cc2c(C)cccc2[nH]1)C(F)(F)F (racemic)", "TESTED_SYSTEM": "Glucocorticoid receptor (Homo sapiens)", "pIC50": 7.52}
{"MOLECULE": "COc1ccc(F)cc1C(C)(C)CC(O)(Cc1cc2ccc(C)cc2[nH]1)C(F)(F)F (racemic)", "TESTED_SYSTEM": "Glucocorticoid receptor (Homo sapiens)", "pIC50": 7.42}
{"MOLECULE": "CC(C)(CC(O)(Cc1cc2ccc(C#N)cc2[nH]1)C(F)(F)F)c1cc(S(C)(=O)=O)cc2c1OCC2 (racemic)", "TESTED_SYSTEM": "Glucocorticoid receptor (Homo sapiens)", "pIC50": 8.30}
{"MOLECULE": "COc1ccc(F)cc1C(C)(C)CC(O)(Cc1cc2ccc(C(F)(F)F)cc2[nH]1)C(F)(F)F (racemic)", "TESTED_SYSTEM": "Glucocorticoid receptor (Homo sapiens)", "pIC50": 7.11}
{"MOLECULE": "COc1ccc(F)cc1C(C)(C)CC(O)(Cc1cc2cc(C)ccc2[nH]1)C(F)(F)F (racemic)", "TESTED_SYSTEM": "Glucocorticoid receptor (Homo sapiens)", "pIC50": 7.18}
{"MOLECULE": "CC(C)(C[C@@](O)(Cc1cc2ccc(C#N)cc2[nH]1)C(F)(F)F)c1cc(S(C)(=O)=O)cc2c1OCC2", "TESTED_SYSTEM": "Glucocorticoid receptor (Homo sapiens)", "pIC50": 8.70}

src = ChEMBL document CHEMBL1909618
